B1: USP39 (parent)
chain: FQGSMRIFTKKLPHPDLPAEEKEQ

# Variants of: B1
# MEASUREMENT_DESCRIPTION: protein stability index of a GFP-peptide fusion (GPS, HEK-293T) (PSI 1-6); higher = more stable;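 also: lentivirally expressed fusions sorted by FACS into six bins by GFP to DsRed ratio, PSI derived from sequencing read proportions per bin multiplied by bin number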
# CONDITION_DESCRIPTION: c terminus: a fixed tail appended
Provide the recorded protein stability index for the entries that follow.
When you answer, write just the number.

Inquiry: For the variant FQGSMRIFTKKLPHPDLPAEEPEQ [K22P] , give its measured protein stability index value.
Reply text: 2.09

Inquiry: Provide measured protein stability index value, entry: FQGSMRNFTKKLPHPDLPAEEKEQ [I7N]
Reply text: 3.65

Inquiry: Provide measured protein stability index value, entry: FQGSMRIFTKKLPHPDLPGEEKEQ [A19G]
Reply text: 1.63

Inquiry: Report measured protein stability index; entry is FQGSMRIFTKMLPHPDLPAEEKEQ [K11M]
Reply text: 1.61

Inquiry: Return value of protein stability index for input FSGSMRIFTKKLPHPDLPAEEKEQ [Q2S] , no commentary.
Reply text: 2.7

Inquiry: Provide measured protein stability index value, entry: FQGSMRIFTKKLPHPDLPAQEKEQ [E20Q]
Reply text: 1.36

Inquiry: Quick one: give measured protein stability index for FQGSMRIFTKKLPSPDLPAEEKEQ [H14S]
Reply text: 1.65

Inquiry: Output protein stability index of FQGSMRIFTKKLPHPDQPAEEKEQ [L17Q]
Reply text: 2.34

Inquiry: State its protein stability index for this variant: FQGSMRIFTHKLPHPDLPAEEKEQ [K10H]
Reply text: 2.37

Inquiry: Give the reported value of protein stability index for this record: FQGSMRIFTKKLPHPDLPAEEKES [Q24S]
Reply text: 2.14

Inquiry: For FQGSMRIFTKKLPHPDLAAEEKEQ [P18A] , write its protein stability index.
Reply text: 2.07

Inquiry: Using known records, supply protein stability index for FQGSMRIWTKKLPHPDLPAEEKEQ [F8W]
Reply text: 1.56

Inquiry: Give the measured protein stability index for FQGAMRIFTKKLPHPDLPAEEKEQ [S4A]
Reply text: 2.33

Inquiry: Please give measured protein stability index of the following entry: FQGSMRIFTKKLPHPDLPASEKEQ [E20S]
Reply text: 2.16

Inquiry: Quick one: give measured protein stability index for FQGSMRIFTKILPHPDLPAEEKEQ [K11I]
Reply text: 1.87

Inquiry: Give me measured protein stability index, please, for this variant: FQGSMRIFTKKWPHPDLPAEEKEQ [L12W]
Reply text: 1.45

Inquiry: State its protein stability index for this variant: FQGSMRIFTKKLPEPDLPAEEKEQ [H14E]
Reply text: 2.05

Inquiry: State, in one line, measured protein stability index of FQGSMRIFTFKLPHPDLPAEEKEQ [K10F]
Reply text: 2.03

Inquiry: Supply recorded protein stability index for FQFSMRIFTKKLPHPDLPAEEKEQ [G3F] here.
Reply text: 1.68

Inquiry: Name the recorded protein stability index of the item FQQSMRIFTKKLPHPDLPAEEKEQ [G3Q] in your answer.
Reply text: 3.51

Inquiry: State its protein stability index: FQGSMRIFIKKLPHPDLPAEEKEQ [T9I]
Reply text: 1.66

Inquiry: Identify measured protein stability index associated with FQGSMRIFTRKLPHPDLPAEEKEQ [K10R]
Reply text: 1.61

Inquiry: Supply reported protein stability index belonging to this variant: FQGSMRIFTKKDPHPDLPAEEKEQ [L12D]
Reply text: 2.63

Inquiry: Could you please provide reported protein stability index for FQGSMRWFTKKLPHPDLPAEEKEQ [I7W] ? Thanks!
Reply text: 3.05

Inquiry: Quickly give me recorded protein stability index for FQGSMRIFTKQLPHPDLPAEEKEQ [K11Q]
Reply text: 1.85

Inquiry: Provide protein stability index value for the following variant: FQGSMRIFTKKLPHPDLNAEEKEQ [P18N]
Reply text: 1.98

Inquiry: Look up and report measured protein stability index for this entry: FQGSMRIFTKKLPHPDLSAEEKEQ [P18S]
Reply text: 2.21

Inquiry: Please look at this variant and report its protein stability index: FQGSMRIFTKKLRHPDLPAEEKEQ [P13R]
Reply text: 2.17

Inquiry: Entry FQGSMRIFFKKLPHPDLPAEEKEQ [T9F] needs its protein stability index filled in; supply it.
Reply text: 1.89

Inquiry: For the variant FQGSMRIFTKKLPHPDLPAEEKWQ [E23W] , give its reported protein stability index.
Reply text: 2.19

Inquiry: Fill in protein stability index for record FQGSMRIFTKKLPHGDLPAEEKEQ [P15G]
Reply text: 1.92

Inquiry: Complete the entry with protein stability index for FQGSMLIFTKKLPHPDLPAEEKEQ [R6L]
Reply text: 2.31

Inquiry: Could you please provide reported protein stability index for FQGSMRIFTKKLPHPDLPAEVKEQ [E21V] ? Thanks!
Reply text: 1.4

Inquiry: Quick one: give measured protein stability index for FKGSMRIFTKKLPHPDLPAEEKEQ [Q2K]
Reply text: 4.16

Inquiry: Give protein stability index for FQGSMRIFTKKLPHPDPPAEEKEQ [L17P]
Reply text: 1.96

Inquiry: Give the reported value of protein stability index for this record: FQGSMRIFTKKLPHPDLPAEEKEE [Q24E]
Reply text: 1.81

Inquiry: Report measured protein stability index; entry is FQGSMRIFTKKLPHPDLPAEEKEI [Q24I]
Reply text: 2.13

Inquiry: Read the entry FQGSMIIFTKKLPHPDLPAEEKEQ [R6I] and write its reported protein stability index.
Reply text: 2.12

Inquiry: In one line, give reported protein stability index of the entry FQGSMRIFTKKLSHPDLPAEEKEQ [P13S] .
Reply text: 1.61

Inquiry: Check the records and state protein stability index for FQGSMRIFTKKGPHPDLPAEEKEQ [L12G]
Reply text: 1.72

Inquiry: Return the recorded protein stability index value; entry: FQGSMVIFTKKLPHPDLPAEEKEQ [R6V]
Reply text: 1.82

Inquiry: Tell me measured protein stability index for FQGSMRIFTKKCPHPDLPAEEKEQ [L12C] please.
Reply text: 2.15

Inquiry: Using the record for FQGSMRIFTKKLHHPDLPAEEKEQ [P13H] , state its measured protein stability index.
Reply text: 2.4

Inquiry: Look up protein stability index of FQGSMRIFTKKLPCPDLPAEEKEQ [H14C] and report it.
Reply text: 2.27

Inquiry: In one line, give reported protein stability index of the entry FQCSMRIFTKKLPHPDLPAEEKEQ [G3C] .
Reply text: 1.86

Inquiry: Find the measured protein stability index of FQVSMRIFTKKLPHPDLPAEEKEQ [G3V] and report it.
Reply text: 2.01
